Biological target: human endothelin A receptor (Homo sapiens, UniProt P25101)
Construct: expressed in transfected cells; host or cells: CHO-K1 (G-418 selected)
Experiment: In vitro ETA binding, attached cell assay, [125I]-ET-1 competition
Settings: Table 1; 97% pure atropisomers of Example 2; Run 3; read-out: IC50 (nM) Run 3
Procedure: The isolated atropisomers of Example 2 were tested for in vitro ETA binding according to the following procedure: […] In the attached cell assay, culture media was aspirated from each well and the monolayers were washed with 75 μl of room temperature PBS (Mg^++, Ca^++ free). […] Data was analyzed with curve fitting software by Sigma plot. […]
Observation Type: IC50 (nM)
# unit: nM | format: bare number

Cc1onc(NS(=O)(=O)c2ccccc2-c2ccc(-c3ncco3)cc2CN(C)C(=O)CC(C)(C)C)c1C (single isomer, unassigned) [97% pure (+) dextrorotatory] | 0.01

The recorded IC50 with human endothelin A receptor (Homo sapiens, UniProt P25101) for Cc1onc(NS(=O)(=O)c2ccccc2-c2ccc(-c3ncco3)cc2CN(C)C(=O)CC(C)(C)C)c1C (single isomer, unassigned) [97% pure (−) levorotatory] was 0.6

---

Target: human endothelin A receptor (Homo sapiens)
Construct: expressed in transfected cells; host or cells: CHO-K1 (G-418 selected)
Sequence (P25101 21-427): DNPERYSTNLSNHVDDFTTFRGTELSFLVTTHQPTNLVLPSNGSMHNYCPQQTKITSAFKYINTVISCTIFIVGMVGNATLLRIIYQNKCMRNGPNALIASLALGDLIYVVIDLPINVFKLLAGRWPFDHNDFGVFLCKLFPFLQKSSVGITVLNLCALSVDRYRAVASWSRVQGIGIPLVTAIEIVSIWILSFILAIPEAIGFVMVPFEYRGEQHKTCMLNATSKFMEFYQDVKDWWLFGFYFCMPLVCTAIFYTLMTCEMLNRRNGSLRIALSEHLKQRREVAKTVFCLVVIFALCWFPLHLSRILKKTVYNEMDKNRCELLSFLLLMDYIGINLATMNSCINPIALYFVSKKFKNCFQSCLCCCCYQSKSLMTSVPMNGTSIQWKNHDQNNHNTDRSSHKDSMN
Test: In vitro ETA binding, attached cell assay, [125I]-ET-1 competition
Conditions: IC50 (nM) Run 2, Table 1; 97% pure atropisomers of Example 2; Run 2
Observation Type: IC50 (nM)
# unit: nM | format: bare number

// IC50 lookup, compound = Cc1onc(NS(=O)(=O)c2ccccc2-c2ccc(-c3ncco3)cc2CN(C)C(=O)CC(C)(C)C)c1C (racemic) [Racemate] , result: 0.24

---

Biological target: human endothelin A receptor (Homo sapiens)
Construct: expressed in transfected cells; host or cells: CHO-K1 (G-418 selected)
Sequence (P25101 21-427): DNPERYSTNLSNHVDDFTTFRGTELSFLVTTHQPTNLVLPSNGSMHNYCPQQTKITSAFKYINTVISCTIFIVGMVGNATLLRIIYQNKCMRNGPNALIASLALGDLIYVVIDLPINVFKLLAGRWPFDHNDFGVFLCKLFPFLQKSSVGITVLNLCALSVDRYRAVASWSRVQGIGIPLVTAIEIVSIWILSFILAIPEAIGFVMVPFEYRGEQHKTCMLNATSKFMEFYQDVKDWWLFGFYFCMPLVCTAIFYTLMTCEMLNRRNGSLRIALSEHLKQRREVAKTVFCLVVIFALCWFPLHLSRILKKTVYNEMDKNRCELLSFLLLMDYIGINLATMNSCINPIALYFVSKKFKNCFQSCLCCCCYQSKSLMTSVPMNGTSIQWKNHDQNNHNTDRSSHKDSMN
Experiment: In vitro ETA binding, attached cell assay, [125I]-ET-1 competition
Conditions: IC50 (nM) Run 6, Table 2; 99.2% pure atropisomers of Example 2; Run 6
Observation Type: IC50 (nM)
# unit: nM | format: bare number

// IC50 lookup, compound = Cc1onc(NS(=O)(=O)c2ccccc2-c2ccc(-c3ncco3)cc2CN(C)C(=O)CC(C)(C)C)c1C (racemic) [Racemate] , result: 0.4
